# System: MDCK cells
# test summary: HGF-induced epithelial-mesenchymal transition / migration of MDCK cells on transwell filters (crystal violet densitometry)
# Type: cell-based
# run conditions: Table 2; 10 μM compound, then HGF, 24 hours; percentage like untreated controls (unstimulated cells = maximal effect, HGF only = nil)
For each entry below, report its Assay Value value.

# input Fill in the blank: the reported Assay Value of COc1cc2c(cc1OC)C(c1cc(Br)c(OC)c(OC)c1)CC(=O)N2 (centres unmarked) [Compound 52] is ____.
# output <5%

# input Fill blank: measured Assay Value of the molecule O=C1CC(c2ccc([N+](=O)[O-])cc2)c2cc3c(cc2N1)OCCO3 (centres unmarked) [Compound 53] is ____.
# output <5%

# input // returns reported Assay Value for input O=C1CC(c2ccc(F)cc2F)c2cc3c(cc2N1)OCO3 (centres unmarked) [Compound 82]
# output <5%

# input Please report the recorded Assay Value for COc1cc2c(cc1OC)C(c1cc(C)ccc1C)CC(=O)N2 (centres unmarked) [Compound 57] .
# output <5%

# input Entry under review: CCCCOc1ccccc1C1CC(=O)Nc2cc(OC)c(OC)cc21 (centres unmarked) [Compound 47] . Reported Assay Value?
# output <5%

# input Query: Assay Value; subject: O=C1CC(c2cc(F)cc(F)c2)c2cc3c(cc2N1)OCO3 (centres unmarked) [Compound 77]
# output <5%

# input For the molecule Cc1cccc(C2CC(=O)Nc3cc4c(cc32)OCO4)c1 (centres unmarked) [Compound 85] , what Assay Value is on record?
# output <5%

# input Param item = O=C1CC(c2ccccc2F)c2cc3c(cc2N1)OCCO3 (centres unmarked) [Compound 69] ; retrieve measured Assay Value.
# output <5%

# input Name the reported Assay Value value associated with the molecule O=C1CC(c2ccccc2C(F)(F)F)c2cc3c(cc2N1)OCO3 (centres unmarked) [Compound 87]
# output <5%

# input Given the molecule COc1ccc(C2CC(=O)Nc3cc4c(cc32)OCO4)cc1Cl (centres unmarked) [Compound 84] , what is its reported Assay Value?
# output <5%

# input Report Assay Value for O=C1CC(c2ccc(Cl)cc2Cl)c2cc3c(cc2N1)CCC3 (centres unmarked) [Compound 97] please.
# output <5%

# input Fill blank: measured Assay Value of the molecule CCCOc1ccc(C2CC(=O)Nc3cc(OC)c(OC)cc32)cc1 (centres unmarked) [Compound 43] is ____.
# output <5%

# input Look at this molecule and give its reported Assay Value. CC(C)Oc1ccc(C2CC(=O)Nc3cc4c(cc32)OCCO4)cc1 (centres unmarked) [Compound 73]
# output <5%

# input Could you share which Assay Value value was measured for COc1cc2c(cc1OC)C(c1ccccc1C)CC(=O)N2 (centres unmarked) [Compound 40] ?
# output <5%

# input Please give the measured Assay Value for this molecule: COc1cc2c(cc1OC)C(c1cccc(OCc3ccccc3)c1)CC(=O)N2 (centres unmarked) [Compound 60]
# output <5%

# input For CC(C)c1ccc(C2CC(=O)Nc3cc4c(cc32)OCO4)cc1 (centres unmarked) [Compound 71] , what is its reported Assay Value?
# output <5%

# input Which measured Assay Value value corresponds to O=C1CC(c2ccccc2C(F)(F)F)c2cc3c(cc2N1)CCC3 (centres unmarked) [Compound 94] ?
# output <5%

# input Give its Assay Value value. Item: O=C1CC(c2ccccc2)c2cc3c(cc2N1)OCO3 (centres unmarked) [Compound 86]
# output <5%

# input What does the record list as Assay Value for O=C1CC(c2ccc([N+](=O)[O-])cc2)c2cc3c(cc2N1)CCC3 (centres unmarked) [Compound 98] ?
# output <5%

# input Value lookup for Assay Value; key = COc1cc2c(cc1OC)C(c1cc(F)ccc1F)CC(=O)N2 (centres unmarked) [Compound 72]
# output <5%

# input Please give the measured Assay Value for this molecule: CCOc1c(Br)cc(C2CC(=O)Nc3cc(OC)c(OC)cc32)cc1OC (centres unmarked) [Compound 39]
# output <5%

# input Which value of Assay Value has been reported for Cc1ccc(C2CC(=O)Nc3cc4c(cc32)OCCO4)cc1 (centres unmarked) [Compound 54] in the records?
# output <5%

# input Dear colleague, I am looking for the recorded Assay Value of the following molecule: COc1ccccc1C1CC(=O)Nc2cc3c(cc21)OCCO3 (centres unmarked) [Compound 38]
# output <5%

# input Please look up its Assay Value: O=C1CC(c2cc3c(cc2[N+](=O)[O-])OCO3)c2cc3c(cc2N1)CCC3 (centres unmarked) [Compound 93]
# output <5%

# input Dear colleague, I am looking for the recorded Assay Value of the following molecule: O=C1CC(c2cccc(OCc3ccccc3)c2)c2cc3c(cc2N1)OCCO3 (centres unmarked) [Compound 58]
# output <5%

# input Given the molecule CCOc1ccccc1C1CC(=O)Nc2cc(OC)c(OC)cc21 (centres unmarked) [Compound 61] , what is its reported Assay Value?
# output <5%

# input I have this molecule here, O=C1CC(c2cccc(Cl)c2)c2cc3c(cc2N1)CCC3 (centres unmarked) [Compound 96] , and I need its recorded Assay Value.
# output <5%

# input Query (molecule): CC(C)Oc1ccccc1C1CC(=O)Nc2cc3c(cc21)OCCO3 (centres unmarked) [Compound 50] ; field requested: Assay Value
# output <5%

# input Suppose we examine the molecule COc1cccc(C2CC(=O)Nc3cc4c(cc32)OCCO4)c1OC (centres unmarked) [Compound 46] ; what Assay Value value has been reported?
# output <5%

# input Fill in the blank: the reported Assay Value of CCOc1ccccc1C1CC(=O)Nc2cc(C)c(C)cc21 (centres unmarked) [Compound 33] is ____.
# output <5%

# input Name the reported Assay Value value associated with the molecule O=C1CC(c2ccc(OC(F)(F)F)cc2)c2cc3c(cc2N1)OCCO3 (centres unmarked) [Compound 78]
# output <5%

# input Query: Assay Value; subject: COc1cc(Br)c(C2CC(=O)Nc3cc(OC)c(OC)cc32)cc1OC (centres unmarked) [Compound 48]
# output <5%

# input Look up Assay Value: COc1cc2c(cc1OC)C(c1cccc(C)c1)CC(=O)N2 (centres unmarked) [Compound 64]
# output <5%

# input So what's the measured Assay Value for this one? COc1cc2c(cc1OC)C(c1cc(Br)ccc1OC)CC(=O)N2 (centres unmarked) [Compound 66]
# output <5%

# input // lookup Assay Value for COc1cccc(C2CC(=O)Nc3cc4c(cc32)CCC4)c1 (centres unmarked) [Compound 99]
# output <5%

# input // returns reported Assay Value for input COc1c(O)cccc1C1CC(=O)Nc2cc3c(cc21)OCO3 (centres unmarked) [Compound 90]
# output <5%

# input Requested read-out: Assay Value. Entry: CC(C)c1ccc(C2CC(=O)Nc3cc4c(cc32)OCCO4)cc1 (centres unmarked) [Compound 79]
# output <5%

# input Please report the recorded Assay Value for COc1cc2c(cc1OC)C(c1ccccc1OCc1ccccc1)CC(=O)N2 (centres unmarked) [Compound 42] .
# output <5%
